Reported Non denatured CD22 OD values follow for various binders
assayed-system: T1, hCD22 fragment Bin 6, IVR6 (aa476-575), displayed on yeast cells (human, UniProt P20273 495-594)
T1 construct: range 476-575; Range is counted on the mature ECD, not on the UniProt entry; on P20273 it would be 495-594 (my arithmetic); also called CD22 Sub-Domain 6; not shown: Aga2-HA display fusion partner of vector pPNL6; MYC tag
T1 sequence (looked up): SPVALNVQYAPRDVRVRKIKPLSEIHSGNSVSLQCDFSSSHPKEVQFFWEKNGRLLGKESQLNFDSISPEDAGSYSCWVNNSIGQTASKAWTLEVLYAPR
assay-method-text: yeast display cell ELISA, native cells
Form field: result (number plus unit)

# binder, Non denatured CD22 OD
data = [
    ("hCD221ug-36 (VHH, single biotin at the VHH C-terminal (biotinylation signal sequence), llama VHH, expressed in E. coli TG1, IMAC purified, monomeric SEC fraction; also called VHH # 22; 4-hCD22 1ug-36) VHH: EVQLVDSGGGLVQAGGSLRVSCEASGITFSRAAMGWYRQRPGKERERVAVVNSDSSTIYADSVKGRFTISRDNAKNTVYLQMNSLEPEDTAVYYCWSPGFGSYWGQGTQVTVSS", "3.5 OD450"),
    ("hCD22pas-64 (VHH, single biotin at the VHH C-terminal (biotinylation signal sequence), llama VHH, expressed in E. coli TG1, IMAC purified, monomeric SEC fraction; also called VHH # 25; 7-hCD22 pas-64) VHH: QVQLVESGGGLVQAGGSLRLSCAASGSTFSLNTMAWYRQAPGNQREYVAAASSDGYTNYADSVRGRFTISRDNDKNTMYLQMNSLRPEDTAVYYCTWGTGRFADYIYWGQGTQVTVSS", "2.98 OD450"),
    ("hCD221ug-80 (VHH, single biotin at the VHH C-terminal (biotinylation signal sequence), llama VHH, expressed in E. coli TG1, IMAC purified, monomeric SEC fraction; also called VHH # 1; 2-hCD22 1ug-80) VHH: QVQLVESGGGLVQPGGSLRLSCTFSGFTLDYYVMVWFRQAPGKEREAVSCITSDGVTYYADSVKGRFTISRDNAKNTVYLQMNRVKPEDTAVYYCAVDKPFYDGGIQYTCPVDFDSWGQGAQVTVSS", "2.57 OD450"),
]

Attention now shifts to the item below.
Qu. For the binder shown here, hCD221ug-13 (VHH, single biotin at the VHH C-terminal (biotinylation signal sequence), llama VHH, expressed in E. coli TG1, IMAC purified, monomeric SEC fraction; also called VHH # 21; 1-hCD22 1ug-13) VHH: QVQLVESGGGLVQAGDSLRLSCAGSGGSFSSVTMAWFRQAPGKDREFVAAITWSSPSTYYADSVKGRFTISRDNAKNTVYLQMNSLKPEDTAVYYCAGGRTGRGTSADTDEYNYWGQGTQVTVSS , give the reported Non denatured CD22 OD.
Ans. 0.453 OD450

Where do these numbers come from? They come from patent US20230265185A1.
